Items are presented alongside their recorded INHIBITION.
Test system: Plasmodium berghei
test-method-notes: Screen against P. berghei liver stage (PbLuc), transformed with Luciferase, at 10uM
Assay type: functional, HepG2
reported-conditions: tested at 10 uM
About 8,600 (12%) of roughly 69,000 compounds showed an effect of 50% or more. This is one part of a sample in which strong results are shown more often than they occur.
quantity-kind: INHIBITION (%)

1) CCCS(=O)(=O)N1C[C@@H]2C[C@H](C(=O)N3CCOCC3)[C@H](C1)O2
-19.6
2) Cc1ccc2c(c1)c(C)cc(=O)n2CC(=O)O
10.775
3) O=S(=O)(c1cccnc1)N1C[C@H]2CC[C@@H](C1)N(Cc1ccccn1)C2
31.7
4) CCc1nc(CN2CCCN(C(=O)c3cccn3C)CC2)cs1
-69.6
5) CC1CN(CC(=O)Nc2ccncc2)CCN1c1nccs1 (stereo not drawn)
21.6
6) Cc1nc(CCN)cc(N2CCC(O)(c3ccc(Cl)cc3)CC2)n1
80.8
7) CC(=O)Nc1nc(C(=O)N2CCCC(n3ccnc3C)C2)cs1 (stereo not drawn)
0.411
8) CCCc1nnc(NC(=O)NC(C)Cn2cccn2)s1 (stereo not drawn)
-45.6
9) Cc1cc(C)n(C2CN(C(=O)Cn3c(C)cc(=O)c4ccccc43)C2)n1
29.1
10) N#Cc1cccc(NC(=O)CCn2nc(-c3cccs3)oc2=O)c1
38.8
11) O=C(C1CCCN(c2nc3ccccc3cc2CO)C1)N1CCCC1 (stereo not drawn)
61.9
12) CC(C)c1noc(CCC(=O)Nc2cc(C(F)(F)F)c[nH]c2=O)n1
41.5
13) CCN(CC1CCOC1)C(=O)c1ccn(-c2ccc(OC)cc2)n1 (stereo not drawn)
-2.48
14) COCC(=O)N1CCN(C(=O)c2scnc2C)CC1
21.3
15) CC(=O)Cn1c(C)cc(=O)c2cc(F)ccc21
82.4
16) OCc1cc2ccccc2nc1N1CCCC1
16.8
17) CCS(=O)(=O)NCC(=O)Nc1cc(CC(C)(C)C)n[nH]1
-10.7
18) Cc1csc(N2CCN(CC(=O)Nc3cccnc3)CC2C)n1 (stereo not drawn)
11.9
19) Cc1csc(N2CCN(CC(=O)Nc3nncs3)CC2C)n1 (stereo not drawn)
40.9
20) CC1CN(CC(=O)Nc2cccnc2)CCN1c1nccs1 (stereo not drawn)
52.7
21) Cc1cc(C)nc(NC(=O)NCCCSc2nncn2C)n1
9
22) Cc1nc(CN2CCCN(C(=O)COCC3CC3)CC2)cs1
43.2
23) Cc1cc(N2CCN(c3nc4ccccc4cc3CO)CC2)nc(C)n1
48.8

---

Items are presented alongside their recorded INHIBITION.
Test system: Plasmodium berghei
test-method-notes: Screen against P. berghei liver stage (PbLuc), transformed with Luciferase, at 10uM
Type: functional, HepG2
reported-conditions: tested at 10 uM
The whole screen tested about 69,000 compounds, of which about 8,600 (12%) showed an effect of 50% or more. Only a selection was taken, and strong results are over-represented in it overall.
quantity-kind: INHIBITION (%)

1. O=C(c1cnccn1)N1CCc2c(COCC3CC3)cncc2C1
39.2
2. Cc1cnn(CC2CCCN2Cc2nnc(-c3ccccc3)o2)c1 (stereo not drawn)
40.9
3. O=C(c1ccsc1)N1CCc2c(COCC3CC3)cncc2C1
39.8
